Molecular target: PI3Kα (Homo sapiens)
Sequence (P42336 whole entry, species assumed): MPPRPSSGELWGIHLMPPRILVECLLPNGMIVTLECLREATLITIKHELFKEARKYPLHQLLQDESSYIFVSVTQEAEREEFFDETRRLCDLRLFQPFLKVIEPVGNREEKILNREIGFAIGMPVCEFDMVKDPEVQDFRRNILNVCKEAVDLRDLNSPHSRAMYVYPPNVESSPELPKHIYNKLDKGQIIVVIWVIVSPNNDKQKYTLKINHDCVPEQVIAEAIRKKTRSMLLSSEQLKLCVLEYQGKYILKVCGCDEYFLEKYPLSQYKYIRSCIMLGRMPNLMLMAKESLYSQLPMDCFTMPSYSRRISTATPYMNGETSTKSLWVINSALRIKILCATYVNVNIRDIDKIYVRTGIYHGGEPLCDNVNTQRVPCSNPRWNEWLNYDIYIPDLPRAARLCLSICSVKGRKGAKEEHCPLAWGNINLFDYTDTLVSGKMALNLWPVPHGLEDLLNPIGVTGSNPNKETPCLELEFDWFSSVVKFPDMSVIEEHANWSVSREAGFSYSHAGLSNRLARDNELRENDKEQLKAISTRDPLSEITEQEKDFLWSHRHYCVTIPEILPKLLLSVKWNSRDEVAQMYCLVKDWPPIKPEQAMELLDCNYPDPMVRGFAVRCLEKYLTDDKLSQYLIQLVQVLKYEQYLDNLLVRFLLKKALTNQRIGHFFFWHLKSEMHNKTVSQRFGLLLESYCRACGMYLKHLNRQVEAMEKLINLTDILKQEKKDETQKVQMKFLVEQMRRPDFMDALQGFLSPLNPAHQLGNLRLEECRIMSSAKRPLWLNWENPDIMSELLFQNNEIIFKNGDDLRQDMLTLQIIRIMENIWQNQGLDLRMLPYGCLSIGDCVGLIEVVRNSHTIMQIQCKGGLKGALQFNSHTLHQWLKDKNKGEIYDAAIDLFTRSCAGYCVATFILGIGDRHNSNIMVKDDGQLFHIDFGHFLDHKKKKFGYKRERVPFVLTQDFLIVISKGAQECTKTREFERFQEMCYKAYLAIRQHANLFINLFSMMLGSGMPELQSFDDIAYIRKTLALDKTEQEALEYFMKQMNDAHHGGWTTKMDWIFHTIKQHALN
Sequence (P27986 whole entry partner, species assumed): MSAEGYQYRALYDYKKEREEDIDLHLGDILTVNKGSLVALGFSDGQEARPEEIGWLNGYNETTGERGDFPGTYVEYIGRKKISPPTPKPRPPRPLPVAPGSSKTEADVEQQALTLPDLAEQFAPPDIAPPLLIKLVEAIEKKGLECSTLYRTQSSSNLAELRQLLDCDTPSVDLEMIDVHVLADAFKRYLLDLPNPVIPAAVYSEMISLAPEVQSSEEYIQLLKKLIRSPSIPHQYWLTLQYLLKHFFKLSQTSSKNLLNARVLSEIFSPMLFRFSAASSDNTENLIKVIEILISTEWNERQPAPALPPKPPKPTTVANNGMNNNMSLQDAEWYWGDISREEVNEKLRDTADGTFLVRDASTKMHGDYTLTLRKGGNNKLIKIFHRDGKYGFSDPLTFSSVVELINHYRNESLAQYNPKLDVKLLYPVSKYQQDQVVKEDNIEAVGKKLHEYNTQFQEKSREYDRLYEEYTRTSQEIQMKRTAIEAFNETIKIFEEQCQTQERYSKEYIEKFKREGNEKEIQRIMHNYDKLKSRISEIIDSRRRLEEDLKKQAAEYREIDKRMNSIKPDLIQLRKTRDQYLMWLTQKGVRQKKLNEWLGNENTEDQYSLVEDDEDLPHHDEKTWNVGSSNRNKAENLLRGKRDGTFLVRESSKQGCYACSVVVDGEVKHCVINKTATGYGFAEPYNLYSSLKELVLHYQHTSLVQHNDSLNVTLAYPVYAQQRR
Experiment: PI3K-alpha fluorescence polarization assay
Format: biochemical
Conditions: read-out: PI3Kα Median IC50
Provide the reported pIC50 of each item.
Notebook: values listed as pIC50 are -log10 of the concentration (mol/L).

Quick check: pIC50 of CNc1ccc(-c2ccnc3c2c(/C=C2\Oc4cc(O)cc(O)c4C2=O)cn3C)cc1 [Compound 43] ?
7.72

And the next one, Cn1cc(/C=C2\Oc3ccc(NC(=O)Nc4cccnc4)cc3C2=O)c2c(N3CC4CCC3CO4)ccnc21 (stereo not drawn) [Compound 277] ?
6.53

Entry COCCN(C)C(=O)c1ccc(-c2ccnc3c2c(/C=C2\Oc4ccc(NC(=O)Nc5cccnc5)cc4C2=O)cn3C)cc1 [Compound 247] please
5.48

Now the compound Cn1cc(/C=C2\Oc3cc(O)cc(O)c3C2=O)c2c(-c3cccc(C(=O)Nc4ccc(F)cc4)c3)ccnc21 [Compound 97]
7.89

Also Cn1cc(/C=C2\Oc3ccc(NC(=O)Nc4cccnc4)cc3C2=O)c2c(N3CCC(C(=O)N4C5CCC4COC5)CC3)ccnc21 [Compound 292] ?
5.46

Next compound: CN(C)CCCNC(=O)Nc1ccc2c(c1)C(=O)/C(=C/c1cn(C)c3nccc(N4CC5CCC(C4)O5)c13)O2 [Compound 241]
7.28

Further, for Cn1cc(/C=C2\Oc3ccc(NC(=O)Nc4cccnc4)cc3C2=O)c2c(-c3ccc(C(=O)N4CCOCC4)cc3)ccnc21 [Compound 178] ?
5.95

Same question, CN(C)C(=O)Nc1ccc(-c2ccnc3c2c(/C=C2\Oc4cccc(O)c4C2=O)cn3C)cc1 [Compound 140] this time
7.23

Next entry: Cn1cc(/C=C2\Oc3cccc(O)c3C2=O)c2c(-c3ccc(N4CCNCC4)cc3)ccnc21 [Compound 135]
6.81

Next: Cn1cc(/C=C2\Oc3cc(O)cc(O)c3C2=O)c2c(Oc3ccccc3)ccnc21 [Compound 94]
7.37

Similarly, CN(C)C(=O)C1CCN(c2ccnc3c2c(/C=C2\Oc4cccc(O)c4C2=O)cn3C)CC1 [Compound 145] ?
7.42

Proceed to CON(C)C(=O)c1ccc(-c2ccnc3c2c(/C=C2\Oc4cccc(O)c4C2=O)cn3C)cc1 [Compound 196]
7.39

Then this compound: CC(=O)Nc1ccc2c(c1)C(=O)/C(=C/c1cn(C)c3nccc(N4CC5CCC(C4)O5)c13)O2 [Compound 155]
6.82

---

Target: UniProt:P48736
Sequence (P48736 whole entry, species assumed): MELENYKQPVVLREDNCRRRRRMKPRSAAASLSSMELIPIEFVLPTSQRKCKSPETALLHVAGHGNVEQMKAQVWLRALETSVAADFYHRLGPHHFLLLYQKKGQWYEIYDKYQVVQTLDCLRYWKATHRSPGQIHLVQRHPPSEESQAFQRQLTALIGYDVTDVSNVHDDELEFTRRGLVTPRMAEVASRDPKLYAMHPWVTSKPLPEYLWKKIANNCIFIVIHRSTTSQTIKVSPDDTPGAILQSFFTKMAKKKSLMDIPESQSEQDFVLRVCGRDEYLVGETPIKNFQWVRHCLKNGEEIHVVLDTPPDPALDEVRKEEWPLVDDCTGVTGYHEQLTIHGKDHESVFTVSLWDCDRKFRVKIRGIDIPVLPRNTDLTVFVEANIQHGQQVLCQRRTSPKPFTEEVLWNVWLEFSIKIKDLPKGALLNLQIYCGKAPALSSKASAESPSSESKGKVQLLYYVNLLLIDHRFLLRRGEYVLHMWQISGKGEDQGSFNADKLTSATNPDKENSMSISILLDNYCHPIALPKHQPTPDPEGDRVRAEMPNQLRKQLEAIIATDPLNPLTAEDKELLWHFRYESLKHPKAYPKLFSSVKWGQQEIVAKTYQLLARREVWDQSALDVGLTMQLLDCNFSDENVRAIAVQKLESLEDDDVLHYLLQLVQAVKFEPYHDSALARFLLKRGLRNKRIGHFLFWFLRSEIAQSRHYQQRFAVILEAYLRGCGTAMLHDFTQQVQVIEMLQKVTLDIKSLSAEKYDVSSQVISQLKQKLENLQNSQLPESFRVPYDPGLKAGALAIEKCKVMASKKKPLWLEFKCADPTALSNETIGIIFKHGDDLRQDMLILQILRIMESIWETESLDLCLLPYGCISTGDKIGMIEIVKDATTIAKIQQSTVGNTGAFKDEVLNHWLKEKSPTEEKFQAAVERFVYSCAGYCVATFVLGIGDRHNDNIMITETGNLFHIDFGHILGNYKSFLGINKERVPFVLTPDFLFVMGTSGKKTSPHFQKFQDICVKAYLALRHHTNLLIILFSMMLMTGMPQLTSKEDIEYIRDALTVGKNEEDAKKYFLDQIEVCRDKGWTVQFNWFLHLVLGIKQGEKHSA
Measured endpoint: IC50 (nM)
Numeric only. Scale: nM

IC50 of "CONC(=O)c1ccc(-c2ccnc3c2c(/C=C2\Oc4ccc(NC(=O)Nc5cccnc5)cc4C2=O)cn3C)cc1" on UniProt:P48736?
479

What do you get for CN(C)C1CCN(C(=O)C2CCN(c3ccnc4c3c(C=C3Oc5ccc(NC(=O)Nc6cccnc6)cc5C3=O)cn4C)CC2)C1 (centres unmarked) ?
2180

Thanks! And Cn1cc(/C=C2\Oc3cccc(O)c3C2=O)c2c(N3CCCC(C(=O)N4CCCC4)C3)ccnc21 (centres unmarked) ?
253

Next entry: "CN(C(=O)C1CCN(c2ccnc3c2c(/C=C2\Oc4ccc(NC(=O)Nc5cccnc5)cc4C2=O)cn3C)CC1)c1cccnc1"
5750

Next: "Cc1cccc(CN(C)C(=O)C2CCN(c3ccnc4c3c(/C=C3\Oc5ccc(NC(=O)Nc6cccnc6)cc5C3=O)cn4C)CC2)n1"
1920

For "Cn1cc(/C=C2\Oc3cccc(O)c3C2=O)c2c(N3C4CCC3COC4)ccnc21" then?
49

Moving on to the next compound: "Cn1cc(/C=C2\Oc3cccc(O)c3C2=O)c2c(-c3ccc(C(=O)N4CCCC4)cc3)ccnc21"
74

Also need "Cn1cc(/C=C2\Oc3cccc(O)c3C2=O)c2c(-c3ccc(S(=O)(=O)N4CCCC4)cc3)ccnc21" , thanks.
80

"COCCNC(=O)c1ccc(-c2ccnc3c2c(/C=C2\Oc4cccc(O)c4C2=O)cn3C)cc1" , same question.
62

Next record, please: "CN(C)c1ccc(-c2ccnc3c2c(/C=C2\Oc4cc(O)cc(O)c4C2=O)cn3C)cc1"
84

Could you do the same for COC1CCN(C(=O)c2ccc(-c3ccnc4c3c(/C=C3\Oc5ccc(NC(=O)Nc6cccnc6)cc5C3=O)cn4C)cc2)C1 (centres unmarked) , please?
529

Also need "Cn1cc(/C=C2\Oc3cccc(O)c3C2=O)c2c(-c3ccc(C(=O)N4CCNCC4)cc3)ccnc21" , thanks.
106

Now this one: "Cn1cc(/C=C2\Oc3cccc(O)c3C2=O)c2c(-c3ccc(-c4ccco4)cc3)ccnc21"
829

What do we get for "CNS(=O)(=O)c1ccc(-c2ccnc3c2c(/C=C2\Oc4cc(O)cc(O)c4C2=O)cn3C)cc1" ?
22

Thanks! And "Cn1cc(/C=C2\Oc3cccc(O)c3C2=O)c2c(N3CCN(C(=O)N4CCCC4)CC3)ccnc21" ?
245

Try the compound "CN(C(=O)C1CCN(c2ccnc3c2c(/C=C2\Oc4ccc(NC(=O)Nc5cccnc5)cc4C2=O)cn3C)CC1)C1CCCC1"
1110

Next up: "CN(C)C(=O)C1CCN(c2ccnc3c2c(/C=C2\Oc4ccc(NC(=O)NC5CNC5)cc4C2=O)cn3C)CC1"
314

Another compound to check: "Cn1cc(/C=C2\Oc3cc(O)cc(O)c3C2=O)c2c(-c3ccc(N)cc3)ccnc21"
141

Same for CNC(=O)Nc1ccc2c(c1)C(=O)/C(=C/c1cn(C)c3nccc(N4CC5CC4CO5)c13)O2 (centres unmarked)
721

Now give it for "CN(C)C(=O)C1CCN(c2ccnc3c2c(/C=C2\Oc4ccc(NC(=O)Nc5ccc(CN6CCCCC6)cc5)cc4C2=O)cn3C)CC1" too.
231

Also "Cn1cc(/C=C2\Oc3cc(O)cc(O)c3C2=O)c2c(Oc3ccccc3)ccnc21" , if possible.
351

Same read-out for "COc1ccccc1-c1ccnc2c1c(/C=C1\Oc3cc(O)cc(O)c3C1=O)cn2C" ?
220

Param item: "Cn1cc(/C=C2\Oc3cc(O)cc(O)c3C2=O)c2c(-c3ccc(N4CCOCC4)cc3)ccnc21"
83

Ok, now "COc1cccc(-c2ccnc3c2c(/C=C2\Oc4cc(O)cc(O)c4C2=O)cn3C)c1"
61

Repeat for the following compound: "Cn1cc(/C=C2\Oc3ccc(NC(=O)NC4CCN(C(=O)C(F)(F)F)CC4)cc3C2=O)c2c(N3CC4CCC(C3)O4)ccnc21"
1720

Also "CN1CCN(C2CCN(c3ccnc4c3c(/C=C3\Oc5cccc(O)c5C3=O)cn4C)CC2)CC1" , if possible.
167
